Would you kindly list IC50 for each of these compounds?
- Test system: 966289-007-R4-J1-PDC complex spheroid viability;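 further: spheroids exposed to agents for one week before readout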
- assay.overview: Anticancer human tumor 966289-007-R4-J1-PDC patient-derived pancreatic adenocarcinoma cell line growth inhibition [RAS]
- settings: curve of first compound; second compound 0.0949 µM
One number for each entry, in nM.

# compound, endpoint, result.unit, reading
rows = [
    ("Nc1ccn(C2OC(CO)C(O)C2(F)F)c(=O)n1 (centres undefined) + CCn1c(-c2cccnc2C(C)OC)c2c3cc(ccc31)N1CCOC(CC(NC(=O)C(C(C)C)N(C)C(=O)C3(F)CCN(C(=O)C#CC(C)(C)N(C)C)CC3)C(=O)N3CCCC(N3)C(=O)OCC(C)(C)C2)C1", "IC50", "nM", 4.66),
]

// next entry
Query: Requested field: IC50. Item: CC1(C)CCC(Nc2ncc(C(F)(F)F)c(-c3c[nH]c4c(P(C)(C)=O)c(C#N)ccc34)n2)CN1 (centres undefined) + CCn1c(-c2cccnc2C(C)OC)c2c3cc(ccc31)N1CCOC(CC(NC(=O)C(C(C)C)N(C)C(=O)C3(F)CCN(C(=O)C#CC(C)(C)N(C)C)CC3)C(=O)N3CCCC(N3)C(=O)OCC(C)(C)C2)C1
Response: 4.06

Just for reference, PubChem BioAssay AID2060897 is where these values come from.
